Listing of recorded Ki by entry.
# assayMethodText: Binding affinity to his-tagged OXA-48 (unknown origin) expressed in Escherichia coli BL21 (DE3) cells assessed as inhibition constant using nitrocefin as substrate by Morrison equation based analysis
# Design: species or system Bacteria
Number in µM, nothing else.

| testSmiles | Ki / µM |
| --- | --- |
| Nc1cccc(CCCNCc2ccccc2-c2cccc(C(=O)O)c2)c1 | 130 |
| CN(C)C(=O)C1CCN(c2ccc(CNCc3ccccc3-c3cccc(C(=O)O)c3)cc2C#N)CC1 | 8 |

Query compound follows.
Requested read-out: Ki. Entry: COc1cc(-c2cc(O)cc(C(=O)O)c2)ccc1C(=O)O
0.6

// provenance: ChEMBL document CHEMBL5532662
